Documented folding stability dG unfold across a set of sequences
- PROCEDURE TEXT: folding stability dG unfold from trypsin proteolysis; higher = more stable
Only the number, expressed in kcal/mol, is required.

Worked cases, folding stability dG unfold given:
SAGKVKIEVEEVPPNVKKVKVESLEELLEAAKKLPPGAVVEVELEDGSKVTVVLNKDGKVVEVKKEPVPSAG [r5_506_TrROS_Hall]; 2.61
SAGGSAGGSPVKDPDGKEVVPIQMTFIIRDPEMGKPVLITITFYIDPAPGGKIKDISIDIFPLSAGGSAGGS [r12_0_TrROS]; 3.51
SAGGSAGGSAMTFFVAVVKTETRVLPDGSLETRSSIEVKPVPAIPAEDLIKKLGLPLEDIASAGGSAGGSAG [r3_338_TrMRF]; 2.13

Query: May I ask what folding stability dG unfold has been recorded for SAGGSAGGSAGSVTITRDYPTPDGTRTTVTITFPSLERSPSVKYKLVSVSPDGNYVLSPESAGGSAGGSAGG [r11_733_JUSTAS] ?
Result: 2.11

Query: // query: SAGPGWIMIRVKIKMRKWKDGKPVRRPIEIPIMAPADGDPEAARRKAEELAEFLAQMYGMEIEDVEIFPSAG [r5_497_TrROS]
Result: 3.07

Query: Further, for SAGGGSMIKKTLEEEPVGESTVSKSTVTLPDGTPVSVTSTTTKVGNTWTTTTTTNYGSSTTTTTTTTSAGGS [r16_476_JUSTAS] ?
Result: -0.638

Query: And SAGMAVVKITLEYEDGRKEEFILFVESENPEEVLEEAEEALAELIEELDVPLKSATIEIYDIPPDEELSAGG [r19_335_TrMRF] ?
Result: 2.12
